Data credit: ChEMBL document CHEMBL1154323

# measurement description: Cytotoxicity against human HuCCa1 cells
# Format: functional, cell-based
# particulars: HuCC-A1
Parameter: IC50. Scope: all listed entries.
State just the number; it will be interpreted in µM.

Q: Quick one: give measured IC50 for COc1cc([C@@H]2c3cc4c(cc3[C@@H](O[C@@H]3O[C@@H]5CO[C@@H](C)O[C@H]5[C@H](O)[C@H]3O)[C@H]3COC(=O)[C@H]23)OCO4)cc(OC)c1O [ETOPOSIDE]
Result: 5.1

Q: Note IC50 for the compound shown: `CC(=O)O[C@H]1C[C@H]2[C@]3(C)CC[C@H]4C(C)(C)CCC[C@]4(C)[C@H]3C[C@@H](O)[C@]2(C)c2cocc21`
Result: 49

Q: Using known records, supply IC50 for `CC1(C)CCC[C@]2(C)[C@H]3C[C@@H](O)[C@]4(C)[C@H]5COC(=O)C5=CC[C@H]4[C@]3(C)CC[C@@H]12`
Result: 42

---

# measurement description: Cytotoxicity against human HuCCa1 cells
# Assay type: functional, cell-based
# particulars: HuCC-A1
measure name: IC50 (µM)
Quick note: give the figure in µM, leave out the unit.

>>> obs_value("CC1(C)CCC[C@]2(C)[C@H]3C[C@](C)(C=O)[C@@H](C[C@H](O)c4ccoc4)[C@]3(C)CC[C@@H]12 [HYRTIOSAL]")
9.1
>>> obs_value("CC1(C)CCC[C@]2(C)[C@H]3C[C@@H](O)[C@]4(C)C5=C(C(=O)O[C@H]5O)[C@H](O)C[C@H]4[C@]3(C)CC[C@@H]12 [HYRTIOLIDE]")
57

Next up:
Q: Provide IC50 value for the following compound: CO[C@@H]1c2occc2[C@@H](O)C[C@H]2[C@]3(C)CC[C@H]4C(C)(C)CCC[C@]4(C)[C@H]3C[C@@]21C [SIMILAN A]
Result: 90

---

Measured IC50, listed per entry.
# Test system: KB
# measurement description: Cytotoxicity against human KB cells
# Format: functional, cell-based
// units = µM; emit number, no label

Some solved cases for reference:
>>> obs_value("CO[C@@H]1c2occc2[C@@H](O)C[C@H]2[C@]3(C)CC[C@H]4C(C)(C)CCC[C@]4(C)[C@H]3C[C@@]21C")
75
>>> obs_value("CC1(C)CCC[C@]2(C)[C@H]3C[C@](C)(C=O)[C@@H](C[C@H](O)c4ccoc4)[C@]3(C)CC[C@@H]12")
7.8
>>> obs_value("COc1cc([C@@H]2c3cc4c(cc3[C@@H](O[C@@H]3O[C@@H]5CO[C@@H](C)O[C@H]5[C@H](O)[C@H]3O)[C@H]3COC(=O)[C@H]23)OCO4)cc(OC)c1O [ETOPOSIDE]")
0.5
>>> obs_value("CC1(C)CCC[C@]2(C)[C@H]3C[C@@H](O)[C@]4(C)C5=C(C(=O)O[C@H]5O)[C@H](O)C[C@H]4[C@]3(C)CC[C@@H]12 [HYRTIOLIDE]")
12
>>> obs_value("CC(=O)O[C@H]1C[C@H]2[C@]3(C)CC[C@H]4C(C)(C)CCC[C@]4(C)[C@H]3C[C@@H](O)[C@]2(C)c2cocc21")
58

# ---- query compound ----
Q: Hello, please tell me recorded IC50 for this one: `CC1(C)CCC[C@]2(C)[C@H]3C[C@@H](O)[C@]4(C)[C@H]5COC(=O)C5=CC[C@H]4[C@]3(C)CC[C@@H]12`
Result: 7
